- measurementProtocol: A quantitative high throughput screen for small molecules that induce DNA re-replication in MCF 10a normal breast cells. Further: nearly all actives have a fitted effect of over 50% in size.
- assaySetup: MCF 10A DNA re-replication, Hoechst nuclear intensity, 48 h; series mostly up to 46.1 µM
The campaign covered roughly 350,000 compounds. About 9,900 (2.8%) were called active. Another 15% or so got no clear call; they are omitted. The call rests on the fitted dose curve; in most records, active means well fitted activation curve with a large enough effect; inconclusive means small, poorly fitted or top-dose-only effect; inactive means no such curve, though single readings can be large or run the other way. The full list was thinned out, with actives kept by preference.
Outcomes: active, inactive

CCOc1ccc(N2C(=O)CC(N(O)c3ccccc3)C2=O)cc1 (centres undefined) :: inactive
CCN(CC)S(=O)(=O)c1ccc(Cl)c(NC(=O)c2ccncc2)c1 :: inactive
CCN(CC)S(=O)(=O)c1ccc(NC(=O)c2cccnc2Cl)c(NC(=O)c2cccnc2Cl)c1 :: active
O=S(=O)(c1ccc(F)cc1)N1CCN(Cc2ccccc2C(F)(F)F)CC1 :: inactive
CCOc1ccc(N2C(=O)CC(N(CCc3ccc(OC)c(OC)c3)C(=S)Nc3ccccc3)C2=O)cc1 (centres undefined) :: active
O=C(CSc1n[nH]c(=O)n1-c1ccccc1)Nc1ccccc1C(F)(F)F :: inactive
C[C@H](O)[C@@H]1C(=O)N2CCc3ccc(N4CCOCC4)cc3[C@@H]2C[C@@H]1N(C)C(=O)C(C)(C)C :: inactive
COC(=O)CN(C(=S)Nc1ccc(Cl)cc1)C1CC(=O)N(c2ccc(OC)cc2)C1=O (centres undefined) :: inactive
Cc1ccc(SC(CC(=O)c2ccc(C(C)(C)C)cc2)C(=O)O)cc1 (centres undefined) :: active

###

- measurementProtocol: A quantitative high throughput screen for small molecules that induce DNA re-replication in MCF 10a normal breast cells. Further: nearly all actives have a fitted effect of over 50% in size.
- assaySetup: MCF 10A DNA re-replication, Hoechst nuclear intensity, 48 h; series mostly up to 46.1 µM
About 9,900 (2.8%) of roughly 350,000 compounds were called active. Not shown: some 15% with an inconclusive outcome. The call rests on the fitted dose curve; in most records, active means well fitted activation curve with a large enough effect; inconclusive means small, poorly fitted or top-dose-only effect; inactive means no such curve, though single readings can be large or run the other way. The sample holds actives, similar compounds and a random draw of the others, so the mix is not that of the screen.
Outcomes: active, inactive

CCN1CCN(c2cc3nc(C)n(Cc4ccccc4)c(=O)c3cc2NC(=O)c2ccccc2F)CC1 :: active
CC(=O)N(O)CCCCCNC(=O)CCC(=O)N(O)CCCCCNC(=O)CCC(=O)N(O)CCCCCNC(=O)CCC(=O)O :: inactive
CC(CNC(=O)Cn1cnc2c(OCc3ccccc3)ncnc21)c1ccccc1 (stereo unspecified) :: inactive
Cc1cc(NC(=O)CSc2nc3cc(Cl)ccc3c(=O)n2Cc2ccco2)no1 :: active
CCOc1ncccc1C(=O)OCC(=O)Nc1cccc(S(=O)(=O)N2CCCCCC2)c1 :: inactive
Cc1ccc(NC(=O)c2cccc(S(=O)(=O)N3CCCc4ccccc43)c2)nc1 :: inactive
COc1cc(SC)ccc1C(=O)NNC(=O)C1COc2ccccc2O1 (stereo unspecified) :: inactive
O=C(Nc1nc2ccc([N+](=O)[O-])cc2s1)c1ccc(S(=O)(=O)N2CCCc3ccccc32)cc1 :: active
COc1ccc(CNC(=O)[C@H](Cc2c[nH]c3ccccc23)NC(C)=O)cc1OC :: inactive
COc1ccc(NC(=O)[C@H](NC(=O)[C@@H]2Cc3ccccc3CN2)c2ccccc2)cc1 :: inactive
Cc1ccccc1-n1c(C)cc(/C=C2\NC(=O)NC2=O)c1C :: active
CCOC(=O)c1ccccc1NS(=O)(=O)c1ccc(OC)cc1 :: active
C=CCSC1=C(C#N)C(c2cc(Br)c(O)c(OC)c2)CC(=O)N1 (stereo unspecified) :: inactive
CSc1ncccc1C(=O)NCC(c1ccco1)N1CCCCC1 (stereo unspecified) :: inactive
C#CCOCCOCCOCCNc1nc(N2CCOCC2)nc(N2CCN(C(=O)[C@H](Cc3ccc(O)cc3)n3cc(CCO)nn3)CC2)n1 :: inactive
C=CCn1c(=O)n(C)c2c(=O)n(C)c(=O)n(C)c21 :: inactive
Cc1nc(N2CCOCC2)sc1C(=O)NN :: inactive
Cc1nc2ccc(NC(=O)c3cccc(S(=O)(=O)N4CCOCC4)c3)cc2s1 :: inactive
Cc1nc(-c2ccccc2)sc1C(=O)/C=C/N(C)C :: inactive
CCOC(=O)c1ccccc1NS(=O)(=O)c1c(C)nc2sccn2c1=O :: inactive
Cc1ccccc1-n1c(C)cc(/C=N/NC(=O)c2ccc(CN3CCOCC3)cc2)c1C :: inactive
